# assay.method.text: Oral bioavailability in rat at 3 mg/kg
# Format: ADME, organism-based
# recorded.conditions: in vivo
readout.kind: bioavailability (%)

INSERT INTO measurements (query_smiles, units_of_measure, val) VALUES
  ('C[C@@H]1C(=O)NN=C2COc3cc(C(F)(F)F)c(NC4CNC4)cc3N21', '%', 28),
  ('C[C@@H]1C(=O)NN=C2COc3cc(-c4ccccc4)c(NC4CNC4)cc3N21', '%', 5.4),
  ('Cc1cc2c(cc1NC1CNC1)N1C(=NNC(=O)[C@H]1C)CO2', '%', 9.2),
  ('C[C@@H]1C(=O)NN=C2COc3cc(C(F)(F)F)c(NC4(C)CNC4)cc3N21', '%', 74);
